experiment: caspase-8 TRAIL sensitization, hit retest, confirmation, cell-based, NB7+caspase-8, with/without TRAIL, luminescence panel (AID 651596); conditions: NB7 neuroblastoma + caspase-8, without TRAIL, luminescence viability, without TRAIL, mean of runs, at 10 µM
Here the recorded activity is given for each entry.

{"molecule": "NC(N)=N/N=C/c1ccc(N(c2ccccc2)c2ccccc2)cc1", "activity": "97.2%"}
{"molecule": "C[C@H]1O[C@@H](OC2CC[C@]3(C=O)[C@H]4CC[C@]5(C)[C@@H](C6=CC(=O)OC6)CC[C@]5(O)[C@@H]4CC[C@]3(O)C2)CC2OC(C)(C)OC21 (stereo partly specified)", "activity": "92.4%"}
{"molecule": "CC[C@H](C)[C@@H]1NC(=O)CNC(=O)c2csc(n2)[C@H](C(C)(C)O)OC(=O)C(C)(C)[C@H](CCCC(C)(Cl)Cl)OC(=O)c2csc1n2", "activity": "78.6%"}
{"molecule": "COC(=O)C12OCC34C(CC5C(C)=C(O)C(=O)CC5(C)C3C(O)C1O)OC(=O)C(OC(=O)/C=C(\\C)C(C)C)C24 (stereo unspecified)", "activity": "97.5%"}
{"molecule": "CCCCCCCCCCCCCCCC[N+](C)(C)C", "activity": "96.8%"}
{"molecule": "CNC(=O)Oc1ccc(-c2cn3cc(C)ccc3n2)cc1", "activity": "95.5%"}
{"molecule": "COc1ccc(-n2nnnc2C(CCc2ccccc2)N2CCC(n3c(=O)[nH]c4ccccc43)CC2)cc1 (stereo unspecified)", "activity": "88.8%"}
{"molecule": "O=c1[nH]c2ccccc2n1C1CCN(C(CCc2ccccc2)c2nnnn2Cc2ccccc2)CC1 (stereo unspecified)", "activity": "92.7%"}
{"molecule": "C=CCn1c(O)c(C(C)=NCc2cc(OC)cc(OC)c2)c(=O)[nH]c1=O", "activity": "84.8%"}
{"molecule": "NC(=S)c1cn(C2OC(CO)C(O)C2O)c2ncnc(N)c12 (stereo unspecified)", "activity": "91.2%"}
{"molecule": "COc1ccc(-[n+]2c(-c3ccccc3)cc(-c3ccc(C)cc3)cc2-c2ccccc2)cc1", "activity": "64.8%"}
{"molecule": "Nc1ncnc2c1ccn2[C@@H]1O[C@H](CO)[C@@H](O)[C@H]1O", "activity": "97.9%"}
{"molecule": "CC1=CC2/C=C(\\C)CCC(O)C(O)/C=C/C(=O)C23C(=O)NC(CC(C)C)C3C1C (stereo unspecified)", "activity": "97.8%"}
{"molecule": "CCOC(=O)[C@]12Cc3cc(C)ccc3[C@H]1N(C(C)C)C(=O)c1ccccc12", "activity": "63.6%"}
{"molecule": "N#CC1c2ccccc2-n2nncc2CN1Cc1cc(Cl)cc(Cl)c1 (stereo unspecified)", "activity": "86.4%"}
{"molecule": "CCC(C)C1NC(=O)C(NC(=O)C(CC(C)C)N(C)C(=O)C2CCCN2C(=O)C(C)O)C(C)OC(=O)C(Cc2ccc(OC)cc2)N(C)C(=O)C2CCCN2C(=O)C(CC(C)C)NC(=O)[C@H](C)C(=O)[C@H](C(C)C)OC(=O)CC1O (stereo partly specified)", "activity": "98.2%"}
{"molecule": "CC1OC(OC2C=C3CCC4C(CCC5(C)C(c6ccc(=O)oc6)CCC45O)C3(C)CC2)C(O)C(OC2OC(CO)C(O)C(O)C2O)C1O (stereo unspecified)", "activity": "91.9%"}
{"molecule": "CCCCCN1C(=O)c2cc(OC)ccc2[C@@]2(C(=O)OCC)Cc3cc(Cl)ccc3[C@@H]12", "activity": "92.8%"}
{"molecule": "CCOC(=O)[C@]12Cc3c(cc(OC)c(OC)c3OC)[C@H]1N(C1CCCCC1)C(=O)c1ccccc12", "activity": "98%"}
{"molecule": "NC(=O)c1cn(C2OC(CO)C(O)C2O)c2ncnc(N)c12 (stereo unspecified)", "activity": "81.3%"}
{"molecule": "CCOC(=O)[C@]12Cc3cc(C)ccc3[C@H]1N(C1CCCCC1)C(=O)c1ccccc12", "activity": "96.5%"}
{"molecule": "Cc1ccc(NC(=O)CN2C(=O)CN=C(c3ccccc3)c3cc(Cl)ccc32)cc1", "activity": "85%"}
{"molecule": "O=[N+]([O-])c1ccc(Cl)c([N+](=O)[O-])c1", "activity": "54.8%"}
{"molecule": "CC1=CC2OC3CC4OC(=O)C=CC=CC(=O)OCCC(C)C(O)C(=O)OCC2(CC1)C4(C)C31CO1 (stereo unspecified)", "activity": "80.9%"}
{"molecule": "COc1ccc2nc(-c3ccc(CN4CCC(n5c(=O)[nH]c6ccccc65)CC4)cc3)c(-c3ccccc3)nc2c1", "activity": "24.9%"}
{"molecule": "CCOC(=O)[C@]12Cc3cc(Cl)ccc3[C@H]1N(Cc1ccccc1)C(=O)c1cc(OC)ccc12", "activity": "97.9%"}
{"molecule": "CN(C)CC(C(=O)Cc1ccccc1)c1ccccc1 (stereo unspecified)", "activity": "96.3%"}
{"molecule": "CCOC(=O)[C@]12Cc3cc(Cl)ccc3[C@H]1N(C1CCCCC1)C(=O)c1ccccc12", "activity": "99.3%"}
{"molecule": "CN(C)C(=O)Oc1ccc(OCc2nc3ccccc3[nH]2)cc1", "activity": "78.1%"}
{"molecule": "CCCC1(CCC)C(=O)NC(=NCc2ccccc2)NC1=O", "activity": "20.8%"}
{"molecule": "CCN(CC)C(=O)c1ccc(NC(=O)Nc2ccccc2F)cc1", "activity": "63.9%"}
{"molecule": "CCOC(=O)[C@]12Cc3cc4ccccc4cc3[C@H]1N(Cc1ccccc1)C(=O)c1cc(OC)ccc12", "activity": "53.2%"}
{"molecule": "CCOC(=O)[C@]12Cc3cc(OC)ccc3[C@H]1N(C1CCCCC1)C(=O)c1ccccc12", "activity": "94.1%"}
{"molecule": "CC(=O)OCC12CC(OC(=O)CC(C)C)C(C)=CC1OC1C(O)C(OC(C)=O)C2(C)C12CO2 (stereo unspecified)", "activity": "97.6%"}
{"molecule": "CCCCCN1C(=O)c2ccccc2[C@@]2(C(=O)OCC)Cc3cc(OC)ccc3[C@@H]12", "activity": "63%"}
{"molecule": "COc1cccc(-c2nc3ccc(N4CCN(C)CC4)cc3[nH]2)c1", "activity": "87.8%"}
